Assay: chemical genetic growth profiling, strain panel (AID 1159580);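 also: tested at 20 µM; growth read once vehicle control cultures reached saturation at 30 °C; 1 = growth at the plate median or of vehicle wells; lower values mean less growth of the strain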
Details: S. cerevisiae deletion strains, growth OD, locus YNR052C, strain pop2, active compounds read low
Screen size: about 5,500 compounds; about 2,000 (36%) were called active. Inconclusive results (about 18%) are left out. The list shows a part of the results.
propertyMeasured: normalized growth

- CC[N+](CC)(CC)CCOc1cccc(OCC[N+](CC)(CC)CC)c1OCC[N+](CC)(CC)CC: 1.02
- OCc1ccccc1O: 0.989
- Cc1cc(-c2ccccc2)nnc1NCCN1CCOCC1: 0.973
- CC1(C)C2(Cl)C(Cl)C(Cl)C(Cl)(C(Cl)Cl)C1(Cl)C2Cl (stereo not given): 0.963
- O=C(O)CN1C(=O)c2cccc3cccc(c23)C1=O: 0.969
- CCCCCCOc1ccccc1C(N)=O: 0.797
- COc1cc2c(cc1OC)C1Cc3ccc(OC)c(OC)c3CN1CC2 (stereo not given): 0.993
- C=C1C(=O)O[C@@H]2C3O[C@]3(C)CC/C=C(\C)CC[C@@H]12 (stereo not given in full): 0.818
- CC(C)[C@@H]1CC[C@@H](C)C[C@H]1O: 1.02
- OC(Cn1cncn1)(Cn1cncn1)c1ccc(F)cc1F: 0.979
- COC(=O)C(C)c1ccc(C(=O)c2cccs2)cc1 (stereo not given): 0.945
- C=C1CCC(=O)C(C)CCC2C1CC2(C)C (stereo not given): 0.989
- C=C1CCC(OC(C)=O)/C(C)=C/C[C@@H]2[C@@H]1CC2(C)C (stereo not given in full): 1.03
- CCCCOC(=O)c1ccccc1C(=O)OCCCC: 0.971
- Cc1cccc(Nc2ccccc2C(=O)O)c1C: 0.878
- Cc1cccc(C)c1NC1=NCCCS1: 0.974
- CO[C@@]1(NC(=O)CSCC#N)C(=O)N2C(C(=O)O)=C(CSc3nnnn3C)CSC21 (stereo not given in full): 1.05
- O=c1cc[nH]c(=S)[nH]1: 1
- CCNC(=O)CC[C@H](N)C(=O)O: 0.998
- Cc1ccc(Cl)c(Nc2ccccc2C(=O)O)c1Cl: 0.835
- O=C(O)c1cc2cc(Cc3cccnc3)ccc2o1: 0.99
- CCCCN(CCCC)CCCOC(=O)c1ccc(N)cc1: 0.992
- C#CCCCCCCCCCCCC(=O)CC(O)COC(C)=O (stereo not given): 0.931
- C=C1C(C)C2C(Cc3ccccc3)NC(=O)C23OC(=O)/C=C/C(=O)CCCC(C)C/C=C/C3C1O (stereo not given): 1.01
- COC(=O)C1=CCCN(C)C1: 0.995
- COC(=O)C(O)c1ccccc1 (stereo not given): 0.975
- CN1C(C(=O)Nc2ccccn2)=C(O)c2ccccc2S1(=O)=O: 0.965
- COc1c2ccoc2c(OC)c2oc(=O)ccc12: 1
- NC[C@@H]1CC[C@@H](N)[C@@H](O[C@H]2[C@H](O)[C@@H](O[C@H]3O[C@H](CO)[C@@H](O)[C@H](N)[C@H]3O)[C@H](N)C[C@@H]2N)O1: 0.953
- COC(=O)[C@@H]1OC(=O)[C@H]2O[C@@]23[C@@]1(C)CCC1[C@@]2(C)CCC(=O)C(C)(C)C2C[C@@H](OC(C)=O)[C@]13C (stereo not given in full): 1.03
- CC(=O)OCC(OC(C)=O)C(OC(C)=O)C(OC(C)=O)C(OC(C)=O)C(COC(C)=O)OC(C)=O (stereo not given): 0.962
- Nc1nc2ncc(=O)[nH]c2c(=O)[nH]1: 0.983
- CC1(C)O[C@H]2[C@H](O)C[C@](O)(C(N)=O)C[C@H]2O1: 1.03
- C=C1C(C)C2C(Cc3ccccc3)NC(=O)C23OC(=O)/C=C/C(O)CCCC(C)C/C=C/C3C1O (stereo not given): 1.01
- COc1ccc(CCN2CCC(Nc3nc4ccccc4n3Cc3ccc(F)cc3)CC2)cc1: 0.982
- C=CCSCC1Nc2cc(Cl)c(S(N)(=O)=O)cc2S(=O)(=O)N1 (stereo not given): 1.03
- CC1OC1P(=O)(O)O (stereo not given): 0.978
- CCN(CC)CCOC(=O)c1ccc(N)cc1: 0.988
- C[N+]1(C)C2CC(OC(=O)[C@@H](CO)c3ccccc3)CC1C1OC12 (stereo not given in full): 1.02
- C=C1CCC2C(CC2(C)C)C(=O)CCC1O (stereo not given): 1.03
